Would you mind telling me the reported composite z-score of each entry?
test system: Sam68 (KHDRBS1); test: Sam68 small-molecule binders, primary screen, biochemical, small-molecule microarray, 635 nm fluorescence (AID 1125); conditions: small-molecule microarray binding, higher = more signal;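 also: score merges 667 nm channel intensity with signal to noise over triplicate slides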
Answers are plain numbers.

Example entries and their recorded answers appear below.
* O=C1C[C@@H](O)[C@@H](O)[C@@H]2[C@@H]3C(=O)N(c4cccc(Oc5ccccc5)c4)C(=O)[C@@H]3CC[C@H]12 | 0.21
* COc1ccc(O[C@H]2C=C[C@@H](c3ccccc3)O[C@@H]2COC(=O)CCC(C)=NO[C@@H]2O[C@H](COC(C)=O)[C@@H](OC(C)=O)[C@H](OC(C)=O)[C@H]2OC(C)=O)cc1 | 1.32

The recorded composite z-score with Sam68 (KHDRBS1) for COc1ccc(COC(=O)NN=C2C[C@@H](O)[C@@H](O)[C@@H]3[C@@H]4C(=O)N(Cc5ccccc5)C(=O)[C@@H]4CC[C@H]23)cc1 was 0.0827

----------
assay: E. coli growth modulation, two-sided OD650, primary screen, E. coli filamentation project, strain DRC41, 24 h (AID 1093); settings: OD650, 24 h, higher = more signal, called active from +8 up or from −8 down;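 also: MC1000 strain lacking acrAB efflux and sulA so SOS filamentation is blocked; test concentration not given here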
Give z-score for every item shown.
Numbers only.

• CCOC(=O)[C@H](Cc1ccccc1)NC(=O)CCC1CC(OC(=O)NCc2cccc3ccccc23)CC2(CCCC(COC(=O)NCC(c3ccccc3)c3ccccc3)O2)O1 (some centres not stated) = -1.09
• Cc1ccc(S(=O)(=O)OC[C@H]2CN3[C@H](c4ccc(Br)cc4)[C@@H](C)CC[C@H]3C(=O)O2)cc1 = 2.18
• CC(=O)OC[C@H]1O[C@H](C#Cc2ccccc2)C=C[C@@H]1OC(C)=O = 0.875
• CC1O[C@H]2C3=C(C(=O)[C@@H]4O[C@@H]4[C@H]3O)[C@@H]1C1[C@@H](C)OC=C3[C@H](O)C4O[C@@H]4C(=NOCc4ccccc4)[C@]312 (some centres not stated) = -0.42
• C#CCCCON=C1C[C@@H](O)[C@@H](O)[C@@H]2[C@@H]3C(=O)N(c4ccc(F)cc4F)C(=O)[C@@H]3CC[C@H]12 = 0.534

Provide the reported z-score of each entry below, same order.
1. COC(=O)CC=C[C@@H](C)[C@@H](C=NOCC[C@@H]1C=C[C@H](OC(C)=O)[C@@H](COC(C)=O)O1)NS(=O)(=O)c1ccc(C)cc1
2. CO[C@@H]1C=CCC(=O)N2CCC[C@H]2C(=O)OC[C@@H](C)C(=O)OC[C@H]1C

Response:
1: 0.545; 2: 0.872

----------
test: MM1S myeloma cell viability, profiling panel, resazurin fluorescence, basal, 24 h, PK04 Diversity Set (AID 1174); conditions: higher = more signal, called active from +8 up or from −8 down;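 also: MM1S multiple myeloma cell line; test concentration not given here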
Calls of active or inactive are those of the source.
I'd be grateful if you could share measured z-score for these entries.

// known answers, use as guide
* CC(C)=CCCC(C)=CCON=C1C[C@@H](O)[C@@H](O)[C@@H]2[C@@H]3C(=O)N(Cc4ccccc4)C(=O)[C@@H]3CC[C@H]12 | 1.14 (inactive)
* O=C1C[C@@H](O)[C@@H](O)[C@@H]2[C@@H]3C(=O)N(Cc4ccc5c(c4)OCO5)C(=O)[C@@H]3CC[C@H]12 | -0.0254 (inactive)
* CO[C@H](C1CCCCC1)[C@H](C)C=CCC(=O)OCCCc1ccccc1 | 0.227 (inactive)

For each of the items listed, what is its z-score?
1. CCN1C(=O)[C@H]2[C@H]3[C@H](O)[C@H](O)CC(=NOC[C@H]4O[C@H](c5ccccc5)C=C[C@@H]4Oc4ccc(OC)cc4)[C@@H]3CC[C@H]2C1=O
2. CCOC(=O)[C@H](CC(C)C)NC(=O)CCC1CC(OC(=O)NCc2cccc3ccccc23)CC2(CCCC(COC(=O)NCCCN3CCCC3=O)O2)O1 (stereo not given in full)
3. CC(C)CON=C1[C@H]2CCn3c(=O)n(Cc4cc5c(cc4Cl)OCO5)c(=O)n3[C@H]2[C@H](O)[C@@H]2O[C@H]12
4. CC(C)CON=C1C[C@@H](O)[C@@H](O)[C@@H]2[C@@H]3C(=O)N(C[C@@H]4CCCO4)C(=O)[C@@H]3CC[C@@H]12
5. COc1ccc(O[C@H]2C=C[C@@H](c3ccccc3)O[C@@H]2COC(=O)CCC(C)=NOC[C@@H](O)[C@H]2O[C@@H]3OC(C)(C)O[C@@H]3[C@H]2O)cc1

Response:
["-0.641 (inactive)", "0.826 (inactive)", "-0.302 (inactive)", "0.22 (inactive)", "0.0383 (inactive)"]

Take each entry in turn and give its z-score.
1. Cn1c(=O)n2n(c1=O)[C@H]1[C@H](O)[C@@H]3O[C@@H]3C(=O)[C@H]1CC2
2. O=C1[C@H]2[C@H]3[C@H](O)[C@H](O)CC(=NO[C@@H]4O[C@H](CO)[C@@H](O)[C@H](O)[C@H]4O)[C@H]3CC[C@H]2C(=O)N1c1cccc(Oc2ccccc2)c1
3. C[C@@H]1CC[C@H]2C(=O)O[C@@H](COc3ccc(C(C)(C)C)cc3)CN2[C@@H]1c1ccc(Br)cc1

Response:
-0.871 (inactive)
-0.0137 (inactive)
0.23 (inactive)

For every listed record, write down its z-score.
1. COc1ccc(O[C@@H]2[C@H](O)CO[C@@H]2C=Cc2ccccc2)cc1
2. COC(=O)CC=C[C@H](C)[C@@H](OCc1cccc(Br)c1)[C@@H](C)[C@H](OC)C1CCCCC1
3. CCCCC#C[C@@H]1C=C[C@H](OC(C)=O)[C@@H](COC(C)=O)O1

Response:
["0.995 (inactive)", "0.0742 (inactive)", "-3.24 (inactive)"]

The measured z-score associated with CC(=O)OC[C@H]1O[C@H](CC=NO[C@H](C)c2cn([C@H](CO)Cc3ccccc3)nn2)C=C[C@@H]1OC(C)=O reads -0.376 (inactive)
